meta.source: PubChem BioAssay (NCI)

I'd be grateful if you could share measured TGI for these entries.
test system: T-47D breast; test: NCI tumour cell line growth inhibition, 48 h
One number for each entry, in µM.

Solved entries (count: 4):
>>> df
                                   compound  data_value
0  CC1=C(c2cccc(O)c2)[C@H](c2ccc(OCCN3CC(CF)C3)cc2)Oc2ccc(O)cc21        19.9
1  CCCCCCCC/C=C\CCCCCCC/C=C1\C[C@](/C=C/C(=O)OC)(CO)OC1=O        13.1
2  C[C@H](NC(=O)C(Cc1ccccc1)(Cc1ccc(O)cn1)NC(=O)c1ccccc1)c1ccccc1 (stereo not given in full)        69.1
3             O=C1Nc2ccc(Br)cc2C1=Nc1cccnc1        52.7

Here is another compound to look at.
Please state recorded TGI (tested on T-47D breast) of O=C(NCCCCCCCCCCCCNC(=O)Nc1cccc2ccccc12)Nc1cccc2ccccc12
36.7

---

test system: HOP-62 NSCLC; test: NCI tumour cell line growth inhibition, 48 h
I'd be grateful if you could share measured TGI for these entries.
Give bare numbers, in µM.

Solved entries (count: 2):
                                   compound  data_value
0             O=C1Nc2ccc(Br)cc2C1=Nc1cccnc1        74.2
1  CSCCC(N)C(=O)NCCNc1ccc(NCCNC(=O)C(N)CCSC)c2c1C(=O)c1ccccc1C2=O (stereo not given)        5.22

Here is another compound to look at.
Please state recorded TGI (tested on HOP-62 NSCLC) of Cc1cc(F)ccc1S(=O)(=O)Nc1cc(-c2c(O)ccc3ccccc23)c(O)c2ccccc12
18.7

---

I'd be grateful if you could share measured TGI for these entries.
test system: MDA-MB-231 breast; assay: NCI tumour cell line growth inhibition, 48 h
Numbers only, in µM.

Solved entries (count: 3):
compound	test.system	TGI, µM
O=C1C[C@@H](C(=O)OCc2ccccc2)NC(=O)C[C@@H](C(=O)OCc2ccccc2)NC(=O)C[C@@H](C(=O)OCc2ccccc2)N1	MDA-MB-231 breast	70.9
COc1cccc(N2C(=O)C3c4[nH]c5ccccc5c4C4CCCC4C3C2=O)c1 (stereo not drawn)	MDA-MB-231 breast	5.63
CC(=O)NCCC1CN(C(=O)/C=C/I)c2ccccc21 (stereo not drawn)	MDA-MB-231 breast	5.15

I would be grateful if you could share the reported TGI for COc1ccc2c(CN3CCCC[C@H]3C(=O)O)cc3cc4c(cc3c2c1)OCO4 .
3.59

---

tested on: NCI-H522 lung; test: NCI tumour cell line growth inhibition, 48 h
I'd be grateful if you could share measured TGI for these entries.

Solved entries (count: 5):
In [3]: df
Out[3]:
                                   molecule  data_value
0  C[N+](C)(C)c1ccc(C(N)C(=O)O)cc1 (stereo not drawn)    > 100 µM
1  CC1(C)CC(O)C(C)(C)[C@@H](O)C1 (stereo partly drawn)    > 100 µM
2  CC1=C(c2cccc(O)c2)[C@H](c2ccc(OCCN3CC(CF)C3)cc2)Oc2ccc(O)cc21     32.8 µM
3  NC(=O)N/N=C1/CCC(O)CC1CC(=O)O (stereo not drawn)    > 100 µM
4  Cc1csc(NC23CC4CC(CC(C4)C2)C3)[n+]1C(P(=O)([O-])O)P(=O)(O)O (stereo not drawn)    > 100 µM

List reported TGI for each of these molecules:
1. Cc1cc(F)ccc1S(=O)(=O)Nc1cc(-c2c(O)ccc3ccccc23)c(O)c2ccccc12
2. CC1C(=O)N(c2ccccc2)NC12CCCc1ccccc12 (stereo not drawn)
3. Cc1cc(NC(=O)NC(=O)c2ccccc2NC(=O)C(C)N)ccc1Oc1ncc(Br)cn1 (stereo not drawn)
4. COc1ccc(CC(N)c2ccc(OC)cc2)cc1 (stereo not drawn)

4.77 µM
> 100 µM
0.334 µM
> 100 µM

List reported TGI for each of these molecules:
1. COc1cc2ccnc3c2c(c1OC)-c1coc(SC)c1-3
2. CC(=O)[CH-]C(=O)c1ccccc1.CC(=O)[CH-]C(=O)c1ccccc1.CC[O-].CC[O-].[Hf+4]
3. NC(=O)c1cccc([N+](=O)[O-])c1
4. O=C(C/C(=N/O)C(=O)NC1=C(Cl)C(=O)c2ccccc2C1=O)CC(c1ccccc1)c1c(O)c2ccccc2oc1=O (stereo not drawn)

1. > 100 µM
2. > 100 µM
3. > 100 µM
4. 52.9 µM
